Biological target: Polyunsaturated fatty acid lipoxygenase ALOX15B (Homo sapiens)
Sequence (O15296 whole entry): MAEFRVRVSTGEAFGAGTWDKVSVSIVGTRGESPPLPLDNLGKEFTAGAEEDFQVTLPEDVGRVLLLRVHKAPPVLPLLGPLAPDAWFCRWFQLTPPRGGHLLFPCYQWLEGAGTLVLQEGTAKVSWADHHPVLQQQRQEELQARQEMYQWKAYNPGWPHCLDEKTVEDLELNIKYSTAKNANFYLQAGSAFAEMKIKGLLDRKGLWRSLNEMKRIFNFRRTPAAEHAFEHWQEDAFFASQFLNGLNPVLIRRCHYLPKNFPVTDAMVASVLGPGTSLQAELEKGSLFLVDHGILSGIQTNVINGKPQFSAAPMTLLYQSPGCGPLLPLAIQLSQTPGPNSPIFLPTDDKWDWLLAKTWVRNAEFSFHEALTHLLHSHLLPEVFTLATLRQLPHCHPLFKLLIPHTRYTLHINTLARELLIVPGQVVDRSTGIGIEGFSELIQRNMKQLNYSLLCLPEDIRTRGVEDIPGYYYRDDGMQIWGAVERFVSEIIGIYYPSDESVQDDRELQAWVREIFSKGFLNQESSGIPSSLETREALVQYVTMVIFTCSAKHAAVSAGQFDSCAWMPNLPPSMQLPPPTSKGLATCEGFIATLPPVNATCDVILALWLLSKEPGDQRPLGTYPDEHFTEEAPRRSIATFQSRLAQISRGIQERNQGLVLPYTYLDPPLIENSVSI
Assay: Inhibition of human recombinant N-terminal His-tagged 15-LOX2 expressed in Escherichia coli using arachidonic acid as substrate preincubated for 5 mins followed by substrate addition measured after 20 mins in dark by ferric ion oxidation-xylenol orange assay

line_notation: C[C@H]1[C@H](C)CC[C@]2(C(=O)O)CC[C@]3(C)C(=CC[C@@H]4[C@@]5(C)C[C@@H](O)[C@H](O)[C@@](C)(CO)[C@@H]5CC[C@]43C)[C@H]12
IC50: Not Active
//
line_notation: C[C@H]1[C@H](C)CC[C@]2(C(=O)O)CC[C@]3(C)C(=CC[C@@H]4[C@@]5(C)C[C@@H](O)[C@H](O)C(C)(C)[C@@H]5CC[C@]43C)[C@H]12
IC50: Not Active
//
line_notation: CC1(C)CC[C@]2(C(=O)O)CC[C@]3(C)C(=CC[C@@H]4[C@@]5(C)CC[C@H](O)[C@@](C)(C=O)[C@@H]5CC[C@]43C)[C@@H]2C1
IC50: Not Active

###

molecular target: UniProt P09917; assay: Inhibition of human recombinant 5-LOX expressed in insect cells assessed as decrease in production of 5-HPETE and 5-HETE using arachidonic acid as substrate preincubated for 5 mins followed by substrate addition measured after 20 mins in dark by ferric ion oxidation-xylenol orange method
Sequence (P09917 whole entry): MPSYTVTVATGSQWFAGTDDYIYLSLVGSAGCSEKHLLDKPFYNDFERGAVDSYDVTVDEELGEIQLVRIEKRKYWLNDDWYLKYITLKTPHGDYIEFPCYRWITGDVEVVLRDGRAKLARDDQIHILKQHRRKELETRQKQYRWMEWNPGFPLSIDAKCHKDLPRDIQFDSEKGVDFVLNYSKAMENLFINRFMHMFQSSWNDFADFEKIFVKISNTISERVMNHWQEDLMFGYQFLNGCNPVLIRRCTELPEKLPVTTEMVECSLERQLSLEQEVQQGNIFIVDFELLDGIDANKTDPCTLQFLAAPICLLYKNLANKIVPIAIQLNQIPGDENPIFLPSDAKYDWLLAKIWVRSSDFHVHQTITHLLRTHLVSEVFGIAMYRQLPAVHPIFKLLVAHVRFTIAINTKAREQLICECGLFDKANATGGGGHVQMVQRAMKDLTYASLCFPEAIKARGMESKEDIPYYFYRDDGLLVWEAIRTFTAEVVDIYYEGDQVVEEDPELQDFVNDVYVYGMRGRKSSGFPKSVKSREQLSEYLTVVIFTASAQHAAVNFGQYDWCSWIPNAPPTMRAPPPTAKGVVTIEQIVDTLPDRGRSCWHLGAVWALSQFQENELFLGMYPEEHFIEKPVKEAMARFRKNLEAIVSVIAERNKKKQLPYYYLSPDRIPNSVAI
property_measured: IC50

line_notation: CC1(C)CC[C@]2(C(=O)O)CC[C@]3(C)C(=CC[C@@H]4[C@@]5(C)CC[C@H](O)C(C)(C)[C@@H]5CC[C@]43C)[C@@H]2C1
property_measured: IC50
experimental_result: Not Active
--
line_notation: CC1(C)CC[C@]2(C)CC[C@]3(C)C(=CC[C@@H]4[C@@]5(C)CCC(=O)C(C)(C)[C@@H]5CC[C@]43C)[C@@H]2C1
property_measured: IC50
experimental_result: Not Active
--
line_notation: C[C@H]1[C@H](C)CC[C@]2(C)CC[C@]3(C)C(=CC[C@@H]4[C@@]5(C)CCC(=O)C(C)(C)[C@@H]5CC[C@]43C)[C@H]12
property_measured: IC50
experimental_result: Not Active
--
line_notation: CC1(C)CC[C@]2(C(=O)O)CC[C@]3(C)C(=CC[C@@H]4[C@@]5(C)CC[C@H](O)[C@@](C)(C=O)[C@@H]5CC[C@]43C)[C@@H]2C1
property_measured: IC50
experimental_result: Not Active
